- TEST TARGET: MurA (EPT Y pestis) (Yersinia pestis, UniProt Q8ZB56)
- Sequence (Q8ZB56 whole entry, looked up): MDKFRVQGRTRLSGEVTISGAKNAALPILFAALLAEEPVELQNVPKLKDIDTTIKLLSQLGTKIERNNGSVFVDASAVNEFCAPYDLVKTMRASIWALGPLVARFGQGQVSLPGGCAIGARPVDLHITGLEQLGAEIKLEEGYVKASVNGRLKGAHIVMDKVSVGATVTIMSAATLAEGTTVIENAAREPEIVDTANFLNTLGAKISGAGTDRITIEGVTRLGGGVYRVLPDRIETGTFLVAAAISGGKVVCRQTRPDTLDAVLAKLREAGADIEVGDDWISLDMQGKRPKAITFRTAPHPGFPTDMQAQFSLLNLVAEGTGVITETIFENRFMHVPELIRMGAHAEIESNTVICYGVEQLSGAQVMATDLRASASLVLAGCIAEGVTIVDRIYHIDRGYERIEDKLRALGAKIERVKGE
pIC50: −log10 of the molar value.
Answer each item with its documented pIC50.

What value of pIC50 has been recorded for this entry: COc1ccc(-c2ccc(OC(=O)c3cccc4c3NC(C(=O)O)C3CC=CC43)cc2)cc1 (stereo not shown) [Compound 32]
4.60 to 4.82

Fill in the blank: the reported pIC50 of O=C(Oc1ccc(-c2ccccc2)cc1Cl)c1cccc2c1NC(C(=O)O)C1CC3OC3C21 (stereo not shown) [Compound 22] is ____.
4.52 to 5.00

Look at this compound and give its reported pIC50. O=C(O)C1Nc2ccc(F)c(Cl)c2C2C=CCC12 (stereo not shown) [Compound 2]
4.52 to 5.00

Can you look up the measured pIC50 of O=C(c1ccccc1)c1ccc(OC(=O)c2cccc3c2NC(C(=O)O)C2CC=CC32)cc1 (stereo not shown) [Compound 41] for me?
4.10 to 4.15

Return reported pIC50; argument: CN(C)C(=O)c1cccc2c1NC(C(=O)O)C1CC=CC21 (stereo not shown) [Compound 4]
3.92 to 4.10

Any idea what pIC50 was measured for O=C(O)c1ccc2c(c1)C1C=CCC1C(C(=O)O)N2 (stereo not shown) [Compound 3] ?
4.52 to 5.00

Could you share which pIC50 value was measured for Cc1ccc(OC(=O)c2cccc3c2NC(C(=O)O)C2CC=CC32)cc1 (stereo not shown) [Compound 44] ?
5.30 to 6.00

// pIC50 lookup, key: NC(=O)c1cccc2c1NC(C(=O)O)C1CC=CC21 (stereo not shown) [Compound 7]
4.40 to 4.70

Requested read-out: pIC50. Entry: O=C(O)C1Nc2cc(C(F)(F)F)ccc2C2C=CCC12 (stereo not shown) [Compound 5]
4.52 to 5.00

Look up pIC50: O=C(Oc1ccc(-c2ccc(Cl)cc2)cc1)c1cccc2c1NC(C(=O)O)C1CC=CC21 (stereo not shown) [Compound 34]
5.00 to 6.00

Could you share which pIC50 value was measured for O=C(Oc1ccc(-c2ccc(O)cc2)cc1)c1cccc2c1NC(C(=O)O)C1CC=CC21 (stereo not shown) [Compound 31] ?
4.40 to 4.70

Looking for the measured pIC50 of CC(C)(C)c1ccc(OC(=O)c2cccc3c2NC(C(=O)O)C2CC=CC32)cc1 (stereo not shown) [Compound 47] , can you help?
4.82 to 5.30

# query: pIC50 of entry O=C(Oc1cc(Cl)cc(Cl)c1)c1cccc2c1NC(C(=O)O)C1CC=CC21 (stereo not shown) [Compound 49]
5.00 to 6.00

The origin of these recorded values is patent US20090203726A1.
